RECORDED ENDPOINT: melting point

COMPOUND | RECORDED ENDPOINT | RECORDED MEASUREMENT
O=C(NCc1cc(Br)cc2[nH]c(=O)c(=O)[nH]c12)C(O)c1ccccc1 (centres undefined) | melting point | > 280 °C
CCOC(=O)c1c(Cn2cncn2)nc2sc3ncccc3c2c1-c1ccc(OC)c(OC)c1 | melting point | 180 to 182 °C
Cn1c(COc2ccc(CC3SC(=O)N(C(c4ccccc4)(c4ccccc4)c4ccccc4)C3=O)cc2)nc2ccc(Oc3ccc(C#N)cc3)cc21 (centres undefined) | melting point | 135 to 138 °C
CCC(C)c1ccc(-n2c(-c3cc(C)c(OCCO)c(C)c3)nc3ccc(S(C)(=O)=O)cc3c2=O)cc1 (centres undefined) | melting point | 259 to 260 °C
CC(C)(C)NC(=O)c1nn(-c2ccc(Br)cc2)c2c1C1CCC2CC1 | melting point | 191 to 193 °C
NC(=O)C1CCc2[nH]c3cc(Cl)c(Cl)cc3c2C1 (centres undefined) | melting point | 199 to 200 °C
Cn1ncc(/C=C/C(=O)Nc2ccc(CS(C)(=O)=O)cc2)c1-c1ccc(F)cc1 | melting point | 251 to 252 °C
CC1c2ccccc2-c2ccccc2N1S(=O)(=O)c1ccc(O)c(CO)c1 (centres undefined) | melting point | 182 to 184 °C
COC(=O)NCc1cccc(-c2ccccc2)c1 | melting point | 49 to 52 °C
